Test system: MCF10A
Assay: one-nucleolus phenotype percent effect (relative to siNT 0% and siNOL11 100%); higher = more cells with one nucleolus (ribosome biogenesis inhibition)
Settings: 20 nM; 72 h
Assign class by one-nucleolus phenotype percent effect: not lower than 10% means satisfied; lower than 10% means not satisfied.

CCAGAGGUGGGGACUGAG [hsa-miR-4257]: satisfied
CCUGCGUGUUUUCUGUCCAA [hsa-miR-4520b-5p]: not satisfied
AAAUUCAUGUUCAAUCUAAACC [hsa-miR-4760-3p]: not satisfied
CAAAGGUAUUUGUGGUUUUUG [hsa-miR-548m]: satisfied
GGUUGGGCAGUGAGGAGGGUGUGA [hsa-miR-3147]: not satisfied
GGGCUGGGGCGCGGGGAGGU [hsa-miR-5787]: not satisfied
UCGUGCAUAUAUCUACCACAU [hsa-miR-4536-3p]: not satisfied
GACCGAGAGGGCCUCGGCUGU [hsa-miR-4523]: not satisfied
UAGGGUACUCAGAGCAAGUUGU [hsa-miR-6841-5p]: not satisfied
UGAUUGUCCAAACGCAAUUCU [hsa-miR-219-5p]: not satisfied

Query: Is it the case that AAACCUGUGUUGUUCAAGAGUC [hsa-miR-649] has one-nucleolus phenotype percent effect reaching or exceeding 10%?
Response: not satisfied

Query: Is it the case that UAUACAAGGGCAGACUCUCUCU [hsa-miR-300] has one-nucleolus phenotype percent effect reaching or exceeding 10%?
Response: not satisfied

Query: Is it the case that CAGGGGCUGGGGUUUCAGGUUCU [hsa-miR-6813-5p] has one-nucleolus phenotype percent effect reaching or exceeding 10%?
Response: not satisfied

Query: Is it the case that CAAGGCCAAAGGAAGAGAACAG [hsa-miR-4753-5p] has one-nucleolus phenotype percent effect reaching or exceeding 10%?
Response: not satisfied

Query: Is it the case that UAACAGUCUACAGCCAUGGUCG [hsa-miR-132-3p] has one-nucleolus phenotype percent effect reaching or exceeding 10%?
Response: not satisfied

Query: Is it the case that CGGCGGGGACGGCGAUUGGUC [hsa-miR-1908-5p] has one-nucleolus phenotype percent effect reaching or exceeding 10%?
Response: satisfied

Query: Is it the case that AGACUGACGGCUGGAGGCCCAU [hsa-miR-4513] has one-nucleolus phenotype percent effect reaching or exceeding 10%?
Response: not satisfied

Query: Is it the case that GAAGUUGUUCGUGGUGGAUUCG [hsa-miR-382-5p] has one-nucleolus phenotype percent effect reaching or exceeding 10%?
Response: satisfied

Query: Is it the case that UUCUCUCUGUCUUUCUCUCUCAG [hsa-miR-6873-3p] has one-nucleolus phenotype percent effect reaching or exceeding 10%?
Response: not satisfied

Query: Is it the case that AGGAUAGGAAGAAUGAAGUGCU [hsa-miR-5191] has one-nucleolus phenotype percent effect reaching or exceeding 10%?
Response: satisfied

Query: Is it the case that GUUCCUGCUGAACUGAGCCAG [hsa-miR-3074-5p] has one-nucleolus phenotype percent effect reaching or exceeding 10%?
Response: not satisfied

Query: Is it the case that AAAAGUAAUUGUGGUUUUUGCC [hsa-miR-548d-5p] has one-nucleolus phenotype percent effect reaching or exceeding 10%?
Response: not satisfied

Query: Is it the case that UGGGGAAGGCUUGGCAGGGAAGA [hsa-miR-6780b-5p] has one-nucleolus phenotype percent effect reaching or exceeding 10%?
Response: satisfied

Query: Is it the case that AAUGCACCCGGGCAAGGAUUCU [hsa-miR-501-3p] has one-nucleolus phenotype percent effect reaching or exceeding 10%?
Response: satisfied
